- MEASURED ON: T1, recombinant human IL-13 (rh-IL-13)-Fc (human, UniProt P35225 35-146, limits assumed)
- T1 construct: bought; not shown: human Fc
- ASSAY OVERVIEW: yeast surface display scFv, flow cytometry, 10 nM rh-IL-13-Fc
Each item that follows carries a reported relative affinity (normalized MFI, % of positive control).

{"BINDER": "Clone C40 (yeast-displayed scFv) (scFv) scFv: QMQLVESGGGVVQPGRSLRLSCAASGFTFRTYGMHWVRQAPGKGLEWVAVIWYDGSNKHYADSVKGRFTITRDNSKNTLNLQMNSLRAEDTAVYYCARSPQWEWVHEAFDLWGQGTMVTVSSGGGGSGGGGSGGGGSSYVLTQPPSVSVAPGQTARITCGGNNIGSKLVHWYQQKPGQAPVLVVYDDSDRPSRIPERFSGSNSGNTATLTISRVEAGDEADYYCQVWDTSSDGVVFGGGTKLTVL", "REPORTED RESULT": "> 20%"}

Entry Clone C9 (yeast-displayed scFv) (scFv) scFv: QMQLVESGGGVVQPGRSLRLSCAASGFTFRTYGMHWVRQAPGKGLEWVAVIWYDGSNKHYADSVKGRFTITRDNSKNTLNLQMNSLRAEDTAVYYCARSPQWEWVHEAFDLWGQGTMVTVSSGGGGSGGGGSGGGGSSYVLTQPPSVSVAPGQTARITCGGNLIGSKLVHWYQQKPGQAPVLVVYDDGDRPSWIPERFSGSNSGNTATLTISRVEAGDEADYYCQVWDSSSDGVVFGGGTKLTVL : reported relative affinity (normalized MFI, % of positive control) = ? > 20%

Requested read-out: relative affinity (normalized MFI, % of positive control). Entry: Clone C6 (yeast-displayed scFv) (scFv) scFv: QMQLVESGGGVVQPGRSLRLSCAASGFTFRTYGMHWVRQAPGKGLEWVAVIWYDGSNKHYADSVKGRFTITRDNSKNTLNLQMNSLRAEDTAVYYCARAPQWMLVAEAFDLWGQGTMVTVSSGGGGSGGGGSGGGGSSYVLTQPPSVSVAPGQTARITCGGNLIGSKLVHWYQQKPGQAPVLVVYDDSDRPSRIPERFSGSNSGNTATLTISRVEAGDEADYYCQVWDSSSDHVVFGGGTKLTVL > 20%
